tested on: mouse liver cells (Hepa1-6 cell line); experiment: Ketone (β-hydroxybutyrate) production in mouse liver cells; assay type: cell-based; conditions: with 100 μM K-one fatty acid blend
READOUT_TYPE: Effect of combining with fatty acid blend on βHb production vs sum of individual effects

stdin: Effect of combining with fatty acid blend on βHb production vs sum of individual effects lookup needed for CC(=O)O , thanks.
stdout: more than additive

stdin: Entry under review: CCCCCC(=O)O . Reported Effect of combining with fatty acid blend on βHb production vs sum of individual effects?
stdout: more than additive

stdin: Fill in the blank: the reported Effect of combining with fatty acid blend on βHb production vs sum of individual effects of CCCC(=O)O is ____.
stdout: more than additive
